Test system: A498 renal
assay summary: NCI-60 one-dose screen, 48 h (100 = growth as untreated, 0 = no growth, -100 = all killed)
reported conditions: 10 µM
About 83,000 compounds went through this panel and 20% of them were active in at least one assay; those are over-represented in the sample as a whole.
Please use True whenever growth is not below 90%, and False whenever it is.

Sample answers from the record:
>>> print(df.to_string())
                                   compound  group
0                       NCc1c(O)ccc2ccccc12   True
1  Cc1cc(Cl)ccc1NC(=O)/C(Cl)=C1/Sc2ccccc2NC1=O   True
2        COc1ccc(C(C#N)=C2C=CC(=NO)C=C2)cc1   True

Determine whether this compound has growth no lower than 90%: CCC(C)(c1ccc(O)c(C)c1)c1ccc(O)c(C)c1
True

Determine whether this compound has growth no lower than 90%: Cn1ncc2cc3c(Nc4ccc(Cl)cc4)cccc3nc21
False

Determine whether this compound has growth no lower than 90%: CN(C)c1ccc(/C=C/c2ccnc3ccccc23)cc1N
False

* * *

System: UACC-62 melanoma
assay summary: NCI-60 one-dose screen, 48 h (100 = growth as untreated, 0 = no growth, -100 = all killed)
reported conditions: 10 µM
The panel holds about 83,000 compounds, 20% with a hit somewhere; the sample as a whole holds those more often.
Please use YES whenever growth is not below 80%, and NO whenever it is.

>>> df
                                   compound  group
0  O=[N+]([O-])c1cc(S(=O)(=O)Nc2ccccc2)ccc1Cl    YES
1  CC1CCC2(C(=O)O)CCC3(C)C(=CCC4C5(C)CC(O)C(O)C(C)(CO)C5C(O)CC43C)C2C1C (stereo unspecified)    YES
2    Cc1cc(N=C2C=CC(=[N+](C)C)C=C2)c(N)cc1N    YES

Determine whether this compound has growth no lower than 80%: CN(C)CCNc1cccc2sc3ccc(O)cc3c(=O)c12
NO

Determine whether this compound has growth no lower than 80%: O=S(=O)(c1cc(Cl)ccc1O)c1cc(Cl)ccc1O
NO

Determine whether this compound has growth no lower than 80%: C=C1N(C)c2ccc(Cl)cc2C1(C)C
NO

* * *

System: A549/ATCC NSCLC
assay summary: NCI-60 one-dose screen, 48 h (100 = growth as untreated, 0 = no growth, -100 = all killed)
reported conditions: 10 µM
The panel holds about 83,000 compounds, 20% with a hit somewhere; the sample as a whole holds those more often.
Please use t whenever growth is not below 70%, and f whenever it is.

Sample answers from the record:
>>> print(df.to_string())
                                   molecule  group
0       CN(C)c1ccc(/C=C/c2ccnc3ccccc23)cc1N      t
1      O=c1[nH]cc(/C=N\Nc2ccccc2)c(=O)[nH]1      f
2  CN(CC(=O)O)c1ccc(/C=C/c2ccnc3ccccc23)cc1      t
3  COc1ccc2c(c1)[nH]c1c(/C=C/c3ccccc3)nccc12      t
4    Cc1cc(N=C2C=CC(=[N+](C)C)C=C2)c(N)cc1N      t
5        COc1cc(N)ccc1Nc1c2ccccc2nc2ccccc12      f
6  Cc1cc(O)c2c(c1O)C(=O)C13C(=C2O)C(=O)C2C(O)C1C1C(O)C3C(=O)C3=C(O)c4c(O)cc(C)c(O)c4C(=O)C321 (stereo unspecified)      f
7                ClCCn1c(CCl)nc2ccc(Cl)cc21      f
8            CCC(=O)Oc1ccc(/C=N/NC(N)=S)nc1      t
9       Cn1ncc2cc3c(Nc4ccc(Cl)cc4)cccc3nc21      t

Determine whether this molecule has growth no lower than 70%: O=[N+]([O-])c1cc(S(=O)(=O)Nc2ccccc2)ccc1Cl
t

* * *

Test system: CAKI-1 renal
assay summary: NCI-60 one-dose screen, 48 h
reported conditions: 10 µM
This is part of a sample that, as a whole, favours compounds with a hit. Of some 83,000 tested, about 20% had one in any assay. The source made the active and inactive calls. How the source made its calls: active means growth percent below 10; inactive means the rest.
Can you answer with just one of these options? active, inactive

Sample answers from the record:
                                   compound        target     group
0                ClCCn1c(CCl)nc2ccc(Cl)cc21  CAKI-1 renal    active
1      O=c1[nH]cc(/C=N\Nc2ccccc2)c(=O)[nH]1  CAKI-1 renal  inactive
2        COc1cc(N)ccc1Nc1c2ccccc2nc2ccccc12  CAKI-1 renal  inactive
3  CC[C@@]1(OC(=O)CN(C)C)C(=O)OCc2c1cc1n(c2=O)Cc2cc3c(N)cccc3nc2-1  CAKI-1 renal    active
4  COc1cccc(C(c2cc3c(cc2O)OCO3)N2CCOCC2)c1OC (configuration not stated)  CAKI-1 renal  inactive

Please examine the following record next.
Entry O=C1C(Cl)=C(Cl)C(Cl)(Cl)C(Cl)C1(Cl)Cl (configuration not stated) : call = ?
inactive

* * *

Test system: UACC-257 melanoma
assay summary: NCI-60 one-dose screen, 48 h (100 = growth as untreated, 0 = no growth, -100 = all killed)
reported conditions: 10 µM
About 83,000 compounds went through this panel and 20% of them were active in at least one assay; those are over-represented in the sample as a whole.
growth strictly under 70% means Y; at 70% or over means N.

Sample answers from the record:
>>> print(df.to_string())
                                   compound  group
0              O=C(NC(=S)Nc1ccccn1)c1ccccc1      N
1  O=C1C(Cl)=C(Cl)C(Cl)(Cl)C(Cl)C1(Cl)Cl (stereo unspecified)      N
2        COc1ccc(C(C#N)=C2C=CC(=NO)C=C2)cc1      Y

Strictly below 70% in growth? CC1CCC2(C(=O)O)CCC3(C)C(=CCC4C5(C)CC(O)C(O)C(C)(CO)C5C(O)CC43C)C2C1C (stereo unspecified)
N

* * *

System: HCC-2998 colon
assay summary: NCI-60 one-dose screen, 48 h
reported conditions: 10 µM
This is part of a sample that, as a whole, favours compounds with a hit. Of some 83,000 tested, about 20% had one in any assay. Calls of active or inactive are those of the source. The calls were made as follows: active = growth percent below 10; inactive = the rest.
Can you answer with just one of these options? active, inactive

Sample answers from the record:
              test_smiles     group
0     NCc1c(O)ccc2ccccc12  inactive
1  O=Nc1ccc(Nc2ccccc2)cc1  inactive

Entry CC[C@@]1(OC(=O)CN(C)C)C(=O)OCc2c1cc1n(c2=O)Cc2cc3c(N)cccc3nc2-1 : call = ?
active

Entry Cn1ncc2cc3c(Nc4ccc(Cl)cc4)cccc3nc21 : call = ?
inactive

Entry S=P(N1CC1)(N1CC1)N1CC1 : call = ?
inactive

* * *

Measured growth values are reported for all entries that follow.
System: MDA-MB-435 melanoma
assay summary: NCI-60 one-dose screen, 48 h (100 = growth as untreated, 0 = no growth, -100 = all killed)
reported conditions: 10 µM
Compounds without any hit were thinned out: in the full panel of roughly 83,000, 20% have a hit.
// note: answer is a bare numeric in %

State its growth: C=C1N(C)c2ccc(Cl)cc2C1(C)C
77.1

State its growth: O=C1C=CC(=O)N1c1ccc(N2C(=O)C=CC2=O)cc1
107

* * *

Measured growth values are reported for all entries that follow.
System: IGROV1 ovarian
assay summary: NCI-60 one-dose screen, 48 h (100 = growth as untreated, 0 = no growth, -100 = all killed)
reported conditions: 10 µM
This is part of a sample that, as a whole, favours compounds with a hit. Of some 83,000 tested, about 20% had one in any assay.
// note: answer is a bare numeric in %

In [3]: df
Out[3]:
                                test_smiles          target  measured_result
0  CC[C@@]1(OC(=O)CN(C)C)C(=O)OCc2c1cc1n(c2=O)Cc2cc3c(N)cccc3nc2-1  IGROV1 ovarian            -3.28

Below: the item to evaluate.
Give growth; test system IGROV1 ovarian; compound COc1ccc(C(C#N)=C2C=CC(=NO)C=C2)cc1
60.9

* * *

Tested on: RXF 393 renal
assay summary: NCI-60 one-dose screen, 48 h
reported conditions: 10 µM
Compounds without any hit were thinned out: in the full panel of roughly 83,000, 20% have a hit. Active and inactive are the calls of the source. The calls were made as follows: active = growth percent below 10; inactive = the rest.
Can you answer with just one of these options? active, inactive

>>> df
                                   compound         target     group
0       CN(C)c1ccc(/C=C/c2ccnc3ccccc23)cc1N  RXF 393 renal  inactive
1    Cc1cc(N=C2C=CC(=[N+](C)C)C=C2)c(N)cc1N  RXF 393 renal  inactive
2                ClCCn1c(CCl)nc2ccc(Cl)cc21  RXF 393 renal    active
3  COc1ccc2oc(-c3ccc(Cl)cc3)c(N3CCN(C)CC3)c2c1  RXF 393 renal  inactive

Entry CCC(=O)Oc1ccc(/C=N/NC(N)=S)nc1 : call = ?
inactive

Entry CC[C@@]1(OC(=O)CN(C)C)C(=O)OCc2c1cc1n(c2=O)Cc2cc3c(N)cccc3nc2-1 : call = ?
active

Entry O=Nc1ccc(Nc2ccccc2)cc1 : call = ?
inactive

Entry O=C1c2cccc3cc([N+](=O)[O-])cc(c23)C(=O)N1CCN1CCCC1 : call = ?
active

Entry Cc1cc(O)c2c(c1O)C(=O)C13C(=C2O)C(=O)C2C(O)C1C1C(O)C3C(=O)C3=C(O)c4c(O)cc(C)c(O)c4C(=O)C321 (stereo not given) : call = ?
active
